- Tested on: Saccharomyces cerevisiae
- Assay name: protein stability index of tFT-peptide fusion (C-terminal peptide) (PSI (0-1 scale)); higher = more stable (slower turnover)
- Condition description: genetic background: wild type; temperature: 37 C
Measurement kind: protein stability index
API note: the answer field is a bare number with no unit suffix.

Ask: Query protein stability index on Saccharomyces cerevisiae for `LTACRYVCFLLF`
Result: 0.424

Ask: Query protein stability index on Saccharomyces cerevisiae for `VFSVSVLFLFFH`
Result: 0.381

Ask: Query protein stability index on Saccharomyces cerevisiae for `CVLVLLLRLAFL`
Result: 0.561

Ask: Query protein stability index on Saccharomyces cerevisiae for `PRHVLWLRRLLF`
Result: 0.537

Ask: Query protein stability index on Saccharomyces cerevisiae for `ERRWKRKVIGLC`
Result: 0.214

Ask: Query protein stability index on Saccharomyces cerevisiae for `NSCHFYSRFYLA`
Result: 0.52

Ask: Query protein stability index on Saccharomyces cerevisiae for `SPTQIPLWILAS`
Result: 0.12

----------
- Tested on: Saccharomyces cerevisiae;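 further: PSI is a weighted mean of sequencing reads over stability bins, variants kept only with over 10 reads, mCherry proximal and sfGFP distal, peptide attached via GGGS linker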
- Assay name: protein stability index of tFT-peptide fusion (C-terminal peptide) (PSI (0-1 scale)); higher = more stable (slower turnover)
- Condition description: genetic background: das1 deletion; temperature: 37 C
Hi there, I'd appreciate the recorded protein stability index for every entry that follows.
API note: the answer field is a bare number with no unit suffix.

Ask: Query protein stability index on Saccharomyces cerevisiae for `FFCVLGLSFFCL`
Result: 0.589

Ask: Query protein stability index on Saccharomyces cerevisiae for `IFLLFPFSWRIF`
Result: 0.694

Ask: Query protein stability index on Saccharomyces cerevisiae for `VWFFGVVLGGLW`
Result: 0.584

Ask: Query protein stability index on Saccharomyces cerevisiae for `IIVLNIGSVIFC`
Result: 0.572

Ask: Query protein stability index on Saccharomyces cerevisiae for `CTAWWVKGVAVK`
Result: 0.643

Ask: Query protein stability index on Saccharomyces cerevisiae for `RITGCWKTYKMQ`
Result: 0.758

Ask: Query protein stability index on Saccharomyces cerevisiae for `KIHILVVQIATR`
Result: 0.139

Ask: Query protein stability index on Saccharomyces cerevisiae for `FLFLFIFYFFCC`
Result: 0.476

Ask: Query protein stability index on Saccharomyces cerevisiae for `PWAHIRTVQTYV`
Result: 0.763

Ask: Query protein stability index on Saccharomyces cerevisiae for `LKKTLNGRRKMI`
Result: 0.736

Ask: Query protein stability index on Saccharomyces cerevisiae for `YGETRGGGRGRW`
Result: 0.766

Ask: Query protein stability index on Saccharomyces cerevisiae for `FCLGFRFFVFFL`
Result: 0.408

Ask: Query protein stability index on Saccharomyces cerevisiae for `GWVQFVKAAVLF`
Result: 0.74

Ask: Query protein stability index on Saccharomyces cerevisiae for `GGSKIGFTVGGG`
Result: 0.738

Ask: Query protein stability index on Saccharomyces cerevisiae for `FPWGRIFLRLRT`
Result: 0.565

Ask: Query protein stability index on Saccharomyces cerevisiae for `RQALYFLMICGL`
Result: 0.545

Ask: Query protein stability index on Saccharomyces cerevisiae for `TLFSFLLVFVFG`
Result: 0.386

Ask: Query protein stability index on Saccharomyces cerevisiae for `LILRVLFLFEPC`
Result: 0.511

Ask: Query protein stability index on Saccharomyces cerevisiae for `VSIVLHSVPCGG`
Result: 0.545

Ask: Query protein stability index on Saccharomyces cerevisiae for `LLTLILRIFVLN`
Result: 0.476

Ask: Query protein stability index on Saccharomyces cerevisiae for `CWYRAVSIQYVL`
Result: 0.466

Ask: Query protein stability index on Saccharomyces cerevisiae for `FILLHLLGTIRS`
Result: 0.502

Ask: Query protein stability index on Saccharomyces cerevisiae for `LFMLHFLAVLRY`
Result: 0.336

Ask: Query protein stability index on Saccharomyces cerevisiae for `GSVCVVCWELVV`
Result: 0.556

Ask: Query protein stability index on Saccharomyces cerevisiae for `VWVISLCIGGVG`
Result: 0.399

Ask: Query protein stability index on Saccharomyces cerevisiae for `LFFLSASFFFFF`
Result: 0.547

Ask: Query protein stability index on Saccharomyces cerevisiae for `VAFVVALSLIFL`
Result: 0.424

Ask: Query protein stability index on Saccharomyces cerevisiae for `ILFVCVCVLHVG`
Result: 0.307

Ask: Query protein stability index on Saccharomyces cerevisiae for `SFLLGCCWLVLC`
Result: 0.393

Ask: Query protein stability index on Saccharomyces cerevisiae for `VGGGCVVVVRWG`
Result: 0.619

Ask: Query protein stability index on Saccharomyces cerevisiae for `PCYRPPLPALLS`
Result: 0.705

Ask: Query protein stability index on Saccharomyces cerevisiae for `LRCCGALPLYAY`
Result: 0.397

Ask: Query protein stability index on Saccharomyces cerevisiae for `CICAFCSLNLLC`
Result: 0.765

Ask: Query protein stability index on Saccharomyces cerevisiae for `VLAARVVLLRCR`
Result: 0.335

Ask: Query protein stability index on Saccharomyces cerevisiae for `ALLMVCFGFSLV`
Result: 0.527

Ask: Query protein stability index on Saccharomyces cerevisiae for `KKNITRLKNKMT`
Result: 0.691

Ask: Query protein stability index on Saccharomyces cerevisiae for `YIFLPIALVFFP`
Result: 0.543
